B1: CHIT1 (parent)
chain: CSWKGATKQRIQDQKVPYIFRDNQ

Variants of: B1
Assay: protein stability index of a GFP-peptide fusion (GPS, HEK-293T) (PSI 1-6); higher = more stable;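 note: lentivirally expressed fusions sorted by FACS into six bins by GFP to DsRed ratio, PSI derived from sequencing read proportions per bin multiplied by bin number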
Conditions: c terminus: a fixed tail appended
Value Kind: protein stability index

>  <Sequence Entry>
CSWKGATKQQIQDQKVPYIFRDNQ [R10Q]

>  <Result Value>
2.8

$$$$
>  <Sequence Entry>
CSWKGATKQRIQDQKVPYIFRMNQ [D22M]

>  <Result Value>
2.43

$$$$
>  <Sequence Entry>
CSWKGATKQRIQDQKVPYIFRGNQ [D22G]

>  <Result Value>
3.03

$$$$
>  <Sequence Entry>
CSWKGATKGRIQDQKVPYIFRDNQ [Q9G]

>  <Result Value>
2.88

$$$$
>  <Sequence Entry>
CSWKGATKQRIQDQKVPYIKRDNQ [F20K]

>  <Result Value>
3.17

$$$$
>  <Sequence Entry>
CSWKGATKQRIQDEKVPYIFRDNQ [Q14E]

>  <Result Value>
2.79

$$$$
>  <Sequence Entry>
CSWKGATKQRIQDQLVPYIFRDNQ [K15L]

>  <Result Value>
2.2

$$$$
>  <Sequence Entry>
CSWKGATKQRIQDQSVPYIFRDNQ [K15S]

>  <Result Value>
2.29

$$$$
>  <Sequence Entry>
CSWKGATKQRIQDQKSPYIFRDNQ [V16S]

>  <Result Value>
2.11

$$$$
>  <Sequence Entry>
CSWKGATKQRIQDYKVPYIFRDNQ [Q14Y]

>  <Result Value>
1.92

$$$$
>  <Sequence Entry>
CSWKGATKQRIQDQKVWYIFRDNQ [P17W]

>  <Result Value>
2.04

$$$$
>  <Sequence Entry>
CKWKGATKQRIQDQKVPYIFRDNQ [S2K]

>  <Result Value>
2.01

$$$$
>  <Sequence Entry>
CNWKGATKQRIQDQKVPYIFRDNQ [S2N]

>  <Result Value>
2.53

$$$$
>  <Sequence Entry>
CSWKGATKQRIQDFKVPYIFRDNQ [Q14F]

>  <Result Value>
2.47

$$$$
>  <Sequence Entry>
CSWKGATKQRIQDQKVNYIFRDNQ [P17N]

>  <Result Value>
2.51

$$$$
>  <Sequence Entry>
CSWKGATKQRIQDQKVPYIMRDNQ [F20M]

>  <Result Value>
3.53

$$$$
>  <Sequence Entry>
CSWKGATKQRIQDQKLPYIFRDNQ [V16L]

>  <Result Value>
2.55

$$$$
>  <Sequence Entry>
CSWKGATKQRIQDQGVPYIFRDNQ [K15G]

>  <Result Value>
2.15

$$$$
>  <Sequence Entry>
CSWKWATKQRIQDQKVPYIFRDNQ [G5W]

>  <Result Value>
3.45

$$$$
>  <Sequence Entry>
CSWKGATKQRIQDQKVPYIFRDYQ [N23Y]

>  <Result Value>
2.11

$$$$
>  <Sequence Entry>
CSWKGALKQRIQDQKVPYIFRDNQ [T7L]

>  <Result Value>
2.52

$$$$
>  <Sequence Entry>
CSWKGATKQRIQDQKVPNIFRDNQ [Y18N]

>  <Result Value>
3.4

$$$$
>  <Sequence Entry>
CSWKGATKQRIQDQKVPYIFRDRQ [N23R]

>  <Result Value>
2.82

$$$$
>  <Sequence Entry>
CSWKGATKQRIQLQKVPYIFRDNQ [D13L]

>  <Result Value>
1.75

$$$$
>  <Sequence Entry>
DSWKGATKQRIQDQKVPYIFRDNQ [C1D]

>  <Result Value>
3.26

$$$$
>  <Sequence Entry>
CSWKGATKQRIWDQKVPYIFRDNQ [Q12W]

>  <Result Value>
1.12

$$$$
>  <Sequence Entry>
CSWKGATKQSIQDQKVPYIFRDNQ [R10S]

>  <Result Value>
2.81

$$$$
>  <Sequence Entry>
CSWKGATKQRIQDQKKPYIFRDNQ [V16K]

>  <Result Value>
3.11

$$$$
>  <Sequence Entry>
CSWKGATKQRIQDQKVPWIFRDNQ [Y18W]

>  <Result Value>
2.19

$$$$
>  <Sequence Entry>
ESWKGATKQRIQDQKVPYIFRDNQ [C1E]

>  <Result Value>
3.13

$$$$
>  <Sequence Entry>
CSWKGATKQRNQDQKVPYIFRDNQ [I11N]

>  <Result Value>
2.56

$$$$
>  <Sequence Entry>
CSGKGATKQRIQDQKVPYIFRDNQ [W3G]

>  <Result Value>
3.19

$$$$
>  <Sequence Entry>
NSWKGATKQRIQDQKVPYIFRDNQ [C1N]

>  <Result Value>
2.88

$$$$
>  <Sequence Entry>
CSWKGARKQRIQDQKVPYIFRDNQ [T7R]

>  <Result Value>
2.75

$$$$
>  <Sequence Entry>
CSWYGATKQRIQDQKVPYIFRDNQ [K4Y]

>  <Result Value>
2.2

$$$$
>  <Sequence Entry>
CAWKGATKQRIQDQKVPYIFRDNQ [S2A]

>  <Result Value>
2.39

$$$$
>  <Sequence Entry>
CSDKGATKQRIQDQKVPYIFRDNQ [W3D]

>  <Result Value>
3.73

$$$$
>  <Sequence Entry>
CSWKGATKQRIQDQKDPYIFRDNQ [V16D]

>  <Result Value>
2.86

$$$$
>  <Sequence Entry>
CSWKGATDQRIQDQKVPYIFRDNQ [K8D]

>  <Result Value>
2.59

$$$$
>  <Sequence Entry>
CSWKGATKQRIQDQKVPYIFRDNT [Q24T]

>  <Result Value>
2.75

$$$$
>  <Sequence Entry>
CSWKGATKQHIQDQKVPYIFRDNQ [R10H]

>  <Result Value>
2.94

$$$$
>  <Sequence Entry>
CSWEGATKQRIQDQKVPYIFRDNQ [K4E]

>  <Result Value>
2.43

$$$$
>  <Sequence Entry>
CSWKGATKQRIQIQKVPYIFRDNQ [D13I]

>  <Result Value>
1.5

$$$$
>  <Sequence Entry>
CWWKGATKQRIQDQKVPYIFRDNQ [S2W]

>  <Result Value>
2.69

$$$$
>  <Sequence Entry>
CSWKGATKQRIQDQKVPYIQRDNQ [F20Q]

>  <Result Value>
3.61

$$$$
>  <Sequence Entry>
CSWKCATKQRIQDQKVPYIFRDNQ [G5C]

>  <Result Value>
1.57

$$$$

This collection of values is drawn from the supplement of paper PMC10567573.
